molecular target: Tubulin (Homo sapiens) (UniProt P68371+Q9H4B7+P0DPH7+P68366+Q13509+Q71U36+P04350+Q3ZCM7+P07437+P68363+Q9BQE3+Q6PEY2+Q13885+Q9BVA1+Q9BUF5); assay: Inhibition of tubulin polymerization at 20 uM; assay type: protein-complex assay
QUANTITY: inhibition (%)
One number for each entry, in %.

As a guide, the following entries are already answered.
MOLECULE	QUANTITY	RECORDED_RESULT
COc1ccc(C(=O)c2ccc3ccccc3c2)c(OC)c1OC	inhibition	4
COc1cc(C(OC(C)=O)c2ccc3ccccc3c2)cc(OC)c1OC (centres undefined)	inhibition	5
COc1ccc(C(O)c2ccc3ccccc3c2)c(OC)c1OC (centres undefined)	inhibition	0

Below: the item to evaluate.
stdin: What value of inhibition has been reported for the following molecule? COc1ccc(C(OC(C)=O)c2ccc3ccccc3c2)c(OC)c1OC (centres undefined)
stdout: 26

The measured values listed here are drawn from ChEMBL document CHEMBL1139939.
